target: Recombinant human FcγRIIIa-V158 (human, UniProt P08637 17-208); assay: SPR; -kif
Sequence (P08637 17-208 F176V): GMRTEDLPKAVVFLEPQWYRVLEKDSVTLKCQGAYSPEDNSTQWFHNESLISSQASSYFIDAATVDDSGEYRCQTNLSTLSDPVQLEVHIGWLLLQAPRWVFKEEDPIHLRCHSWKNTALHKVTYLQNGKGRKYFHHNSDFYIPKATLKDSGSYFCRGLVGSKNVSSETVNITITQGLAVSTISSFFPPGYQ
Listed below: Kd values for each entry.
Answer format: numeric, nM implied, no suffix.

[[record]]
binder = "human IgG1 antibody specific for protein 4, S239D/S298A + T256D/T307Q, -Kif (antibody) ASTKGPSVFPLAPSSKSTSGGTAALGCLVKDYFPEPVTVSWNSGALTSGVHTFPAVLQSSGLYSLSSVVTVPSSSLGTQTYICNVNHKPSNTKVDKKVEPKSCDKTHTCPPCPAPELLGGPDVFLFPPKPKDTLMISRDPEVTCVVVDVSHEDPEVKFNWYVDGVEVHNAKTKPREEQYNATYRVVSVLQVLHQDWLNGKEYKCKVSNKALPAPIEKTISKAKGQPREPQVYTLPPSRDELTKNQVSLTCLVKGFYPSDIAVEWESNGQPENNYKTTPPVLDSDGSFFLYSKLTVDKSRWQQGNVFSCSVMHEALHNHYTQKSLSLSPGK"
meas_value = 30.7


QUERY: Reported Kd for human IgG1 antibody specific for protein 4, T256D/T307Q + R292C/V302C, -Kif (antibody) ASTKGPSVFPLAPSSKSTSGGTAALGCLVKDYFPEPVTVSWNSGALTSGVHTFPAVLQSSGLYSLSSVVTVPSSSLGTQTYICNVNHKPSNTKVDKKVEPKSCDKTHTCPPCPAPELLGGPSVFLFPPKPKDTLMISRDPEVTCVVVDVSHEDPEVKFNWYVDGVEVHNAKTKPCEEQYNSTYRCVSVLQVLHQDWLNGKEYKCKVSNKALPAPIEKTISKAKGQPREPQVYTLPPSRDELTKNQVSLTCLVKGFYPSDIAVEWESNGQPENNYKTTPPVLDSDGSFFLYSKLTVDKSRWQQGNVFSCSVMHEALHNHYTQKSLSLSPGK : what is it?
RESULT: 410
